assay: self-splicing fitness, log relative to wild type (ln ratio); higher = more splicing; Tetrahymena group I intron in knt gene, E. coli kanamycin selection, DiMSum; sequences stand for … in CUCUCU…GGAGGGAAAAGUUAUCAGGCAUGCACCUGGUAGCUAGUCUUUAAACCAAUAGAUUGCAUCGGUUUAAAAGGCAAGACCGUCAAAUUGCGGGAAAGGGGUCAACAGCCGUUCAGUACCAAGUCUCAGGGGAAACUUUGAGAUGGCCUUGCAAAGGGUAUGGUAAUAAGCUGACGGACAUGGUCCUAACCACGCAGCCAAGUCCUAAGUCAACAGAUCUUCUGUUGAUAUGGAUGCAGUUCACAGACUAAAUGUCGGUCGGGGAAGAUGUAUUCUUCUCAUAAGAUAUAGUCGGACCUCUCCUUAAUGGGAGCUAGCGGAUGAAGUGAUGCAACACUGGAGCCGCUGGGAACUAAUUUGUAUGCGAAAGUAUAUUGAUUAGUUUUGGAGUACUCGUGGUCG; conditions: 37 °C;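 also: selection with 25 µg/mL kanamycin versus none on LB agar overnight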
ASSAY ENDPOINT: self-splicing fitness (ln)

INSERT INTO assay_data (chain, measured_value) VALUES
  ('UGCCAGCAAUAUUACGCAAG', -3.65),
  ('CGGCAGCAAUAUUACGCGGC', -3.03),
  ('CGGUAGCAAUAUUACGCAAG', -1.02),
  ('GUACAGCAAUAUUACGUGUU', -1.54),
  ('CCUCAGCAAUAUUACGUUAA', -2.96),
  ('GAAUAGCAAUAUUACGAAGC', -2.54),
  ('UAAGAGCAAUAUUACGGGGC', -2.83),
  ('GCGUAGCAAUAUUACGACAG', -0.456),
  ('CCCAAGCAAUAUUACGGAGU', -2.47),
  ('CUGUAGCAAUAUUACGUCCA', -2.89),
  ('CCCUAGCAAUAUUACGCGGG', -1.92),
  ('CAUAAGCAAUAUUACGACGC', -0.823),
  ('GGCCAGCAAUAUUACGUUCA', -0.905),
  ('CACUAGCAAUAUUACGUGUA', -1.47),
  ('AACCAGCAAUAUUACGGGCC', -0.824),
  ('GACAAGCAAUAUUACGCCAU', -2.96),
  ('CUAAAGCAAUAUUACGUACC', -2.03),
  ('CGCCAGCAAUAUUACGACUC', -2.21),
  ('AUCUAGCAAUAUUACGAUCU', 0.148),
  ('GUAUAGCAAUAUUACGGUUG', -1.35),
  ('CACUAGCAAUAUUACGUAUG', -0.818),
  ('GUUAAGCAAUAUUACGUCGG', -2.55),
  ('AAAGAGCAAUAUUACGUAUC', -1.57),
  ('UUCCAGCAAUAUUACGUACG', -0.902),
  ('ACCGAGCAAUAUUACGCCUC', -2.36),
  ('CACUAGCAAUAUUACGGUGG', -0.616),
  ('UGCGAGCAAUAUUACGGUCA', -0.397),
  ('UGAUAGCAAUAUUACGGUCA', -0.29),
  ('CGCCAGCAAUAUUACGGGCA', 0.189),
  ('GACUAGCAAUAUUACGUGGG', -1.96),
  ('ACUCAGCAAUAUUACGUGUU', -1.28),
  ('UGAAAGCAAUAUUACGUCAU', -1.77),
  ('GCAUAGCAAUAUUACGGGCG', -1.09),
  ('AAAUAGCAAUAUUACGUACU', 0.295);

---

experiment: self-splicing fitness, log relative to wild type (ln ratio); higher = more splicing; Tetrahymena group I intron in knt gene, E. coli kanamycin selection, DiMSum; sequences stand for … in CUCUCU…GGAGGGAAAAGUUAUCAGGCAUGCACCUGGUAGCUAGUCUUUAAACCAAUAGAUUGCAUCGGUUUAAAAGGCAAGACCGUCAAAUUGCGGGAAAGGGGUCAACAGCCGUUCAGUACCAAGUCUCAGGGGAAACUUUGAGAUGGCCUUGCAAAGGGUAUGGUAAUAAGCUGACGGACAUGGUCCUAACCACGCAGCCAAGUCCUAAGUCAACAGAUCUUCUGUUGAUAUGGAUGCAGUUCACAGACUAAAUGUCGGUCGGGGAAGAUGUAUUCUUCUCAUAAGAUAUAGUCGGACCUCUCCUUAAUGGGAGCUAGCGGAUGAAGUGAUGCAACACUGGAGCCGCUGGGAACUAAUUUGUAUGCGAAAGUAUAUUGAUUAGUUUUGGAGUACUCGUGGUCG; settings: 37 °C
The class of a record is decided solely by its measured self-splicing fitness (ln); consult category 1: < -2; category 2: ≥ -2 and < -1; category 3: ≥ -1

INSERT INTO assay_data (chain, category_label) VALUES
  ('GCGGAGCAAUAUUACGCUCC', 'category 3'),
  ('GAAGAGCAAUAUUACGGGGU', 'category 2'),
  ('ACCCAGCAAUAUUACGGGUC', 'category 1'),
  ('ACCAAGCAAUAUUACGAUGA', 'category 2'),
  ('UCCCAGCAAUAUUACGAGUA', 'category 3'),
  ('GAACAGCAAUAUUACGGGUG', 'category 2'),
  ('AAUUAGCAAUAUUACGCACG', 'category 3'),
  ('GCGCAGCAAUAUUACGAUAA', 'category 3'),
  ('GCCGAGCAAUAUUACGGUUG', 'category 3'),
  ('CUUGAGCAAUAUUACGGGUA', 'category 1'),
  ('UACCAGCAAUAUUACGCAGG', 'category 1');

---

experiment: self-splicing fitness, log relative to wild type (ln ratio); higher = more splicing; Tetrahymena group I intron in knt gene, E. coli kanamycin selection, DiMSum; sequences stand for … in CUCUCU…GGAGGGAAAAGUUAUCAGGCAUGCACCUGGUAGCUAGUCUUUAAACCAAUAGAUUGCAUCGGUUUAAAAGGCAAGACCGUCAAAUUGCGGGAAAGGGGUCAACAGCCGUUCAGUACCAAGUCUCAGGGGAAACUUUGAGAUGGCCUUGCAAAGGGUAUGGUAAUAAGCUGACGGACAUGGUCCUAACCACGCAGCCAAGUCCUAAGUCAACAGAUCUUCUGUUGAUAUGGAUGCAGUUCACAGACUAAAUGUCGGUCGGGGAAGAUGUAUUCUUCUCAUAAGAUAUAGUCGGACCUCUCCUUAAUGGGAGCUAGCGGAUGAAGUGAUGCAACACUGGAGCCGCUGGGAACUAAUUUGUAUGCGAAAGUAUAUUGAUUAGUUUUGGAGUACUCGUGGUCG; settings: 37 °C
ASSAY ENDPOINT: self-splicing fitness (ln)

INSERT INTO assay_data (chain, measured_value) VALUES
  ('CGGCAGCAAUAUUACGGCUC', -0.28),
  ('CUCAAGCAAUAUUACGUCAG', -0.908),
  ('CACAAGCAAUAUUACGCCUC', -1.95),
  ('UGACAGCAAUAUUACGGUUA', -0.364),
  ('AACAAGCAAUAUUACGUGAG', -1.01),
  ('UUACAGCAAUAUUACGUGUA', -1.48),
  ('AACGAGCAAUAUUACGGGAU', -3.33),
  ('UAGCAGCAAUAUUACGAGGU', -1.7),
  ('UUUAAGCAAUAUUACGGCAU', -0.239),
  ('AACGAGCAAUAUUACGGCAU', -0.446),
  ('UCGGAGCAAUAUUACGUGAU', -3.24),
  ('AAGAAGCAAUAUUACGUCGA', 0.0801),
  ('GCAUAGCAAUAUUACGUUUA', -1.61),
  ('AUCGAGCAAUAUUACGAGCA', -0.963),
  ('GGAAAGCAAUAUUACGAAAC', -0.659),
  ('AAGGAGCAAUAUUACGCGAC', -1.54),
  ('CCCAAGCAAUAUUACGGGAC', -2.67),
  ('GGGCAGCAAUAUUACGCACA', 0.448),
  ('ACCGAGCAAUAUUACGUUGU', -1.5),
  ('GCUUAGCAAUAUUACGCCGG', -1.44),
  ('CUGGAGCAAUAUUACGGAUG', -0.927),
  ('CGCCAGCAAUAUUACGAGGU', -1.89),
  ('UAAAAGCAAUAUUACGGUCG', -0.0674),
  ('CUCAAGCAAUAUUACGUCGG', -1.27),
  ('AGUUAGCAAUAUUACGAUAG', -1.77),
  ('ACCGAGCAAUAUUACGUCGU', -1.04),
  ('CACCAGCAAUAUUACGGAGC', -1.58),
  ('UUACAGCAAUAUUACGGUCU', -0.357),
  ('UUGGAGCAAUAUUACGAUGA', -0.543),
  ('AUAGAGCAAUAUUACGAUUG', -1.33),
  ('CUCAAGCAAUAUUACGUACU', -1.29),
  ('CAUUAGCAAUAUUACGUCAG', -0.0898),
  ('CGGUAGCAAUAUUACGGAGC', -2.91),
  ('GCCAAGCAAUAUUACGCGAU', -2.64),
  ('CAUCAGCAAUAUUACGAGAC', -2.73),
  ('AGUAAGCAAUAUUACGAGCA', -0.349),
  ('UGAAAGCAAUAUUACGGCAG', -0.105),
  ('AAUCAGCAAUAUUACGCAAA', -0.117),
  ('CUACAGCAAUAUUACGCCUU', -1.4),
  ('CUUGAGCAAUAUUACGUUAC', -2.44),
  ('GGACAGCAAUAUUACGCCUC', -0.751),
  ('CCGCAGCAAUAUUACGCUAG', -2.05),
  ('CCCUAGCAAUAUUACGGUAU', -2.13),
  ('GGACAGCAAUAUUACGCUCG', -0.0297),
  ('GUCGAGCAAUAUUACGGACU', -1.73),
  ('ACUUAGCAAUAUUACGUGUC', -2.7),
  ('CGAAAGCAAUAUUACGUUGC', -3.23),
  ('GUGUAGCAAUAUUACGUACG', -1.14),
  ('UGGCAGCAAUAUUACGCGGU', -2.62),
  ('GGGCAGCAAUAUUACGCUAU', -0.411),
  ('UACAAGCAAUAUUACGAAGA', -2.11),
  ('GUCCAGCAAUAUUACGCCUU', -0.309),
  ('CGCUAGCAAUAUUACGUAUC', -2.76),
  ('CAAAAGCAAUAUUACGGGGU', -2.7),
  ('GUGUAGCAAUAUUACGAACU', -0.299),
  ('GUUUAGCAAUAUUACGACUC', 0.248),
  ('GCAGAGCAAUAUUACGAGGG', -2.2),
  ('CUGUAGCAAUAUUACGUAGA', -2.51),
  ('AAUGAGCAAUAUUACGAGAA', -2.03),
  ('CGGUAGCAAUAUUACGACGG', 0.071),
  ('GUGUAGCAAUAUUACGAUCA', -0.543),
  ('CACUAGCAAUAUUACGCUAU', -2.38),
  ('GACGAGCAAUAUUACGAAAC', -3.14),
  ('CCCGAGCAAUAUUACGCUAG', -1.73),
  ('GCAUAGCAAUAUUACGUAUA', -1.52),
  ('CUGUAGCAAUAUUACGCCAC', -2.09),
  ('CGUAAGCAAUAUUACGCUGU', -2.17);
